Every entry's value here was drawn from ChEMBL document CHEMBL1154681.

# Target Of Assay: Acetylcholinesterase (Homo sapiens)
# Sequence (P22303 whole entry): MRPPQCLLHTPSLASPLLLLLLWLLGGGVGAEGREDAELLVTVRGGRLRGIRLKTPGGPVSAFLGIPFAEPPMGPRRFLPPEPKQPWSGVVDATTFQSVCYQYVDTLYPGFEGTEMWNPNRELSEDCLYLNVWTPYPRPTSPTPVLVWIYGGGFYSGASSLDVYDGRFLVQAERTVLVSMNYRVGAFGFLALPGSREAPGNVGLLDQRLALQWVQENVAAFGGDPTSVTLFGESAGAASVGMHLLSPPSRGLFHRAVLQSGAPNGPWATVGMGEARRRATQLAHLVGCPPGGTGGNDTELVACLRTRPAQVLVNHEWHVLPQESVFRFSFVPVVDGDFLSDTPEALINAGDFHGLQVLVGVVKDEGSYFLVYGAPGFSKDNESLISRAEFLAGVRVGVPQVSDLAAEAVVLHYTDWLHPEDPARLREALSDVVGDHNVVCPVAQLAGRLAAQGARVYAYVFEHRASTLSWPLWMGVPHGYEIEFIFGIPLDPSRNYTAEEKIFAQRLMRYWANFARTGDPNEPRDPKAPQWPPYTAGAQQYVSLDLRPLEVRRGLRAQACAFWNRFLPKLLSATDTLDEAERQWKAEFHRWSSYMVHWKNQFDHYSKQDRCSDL
# Procedure Summary: Inhibition of human recombinant AChE by Ellman's method
So basically, if Ki comes in under 90 microM/L it's 1 (yes), and if it's 90 microM/L or more it's 0 (no).

Here are 2 compounds together with their reported answers.
{"Compound": "O=c1c(O)c(-c2ccc(O)cc2)oc2cc(O)cc(O)c12 [KAEMPFEROL]", "Group": "0 (no)"}
{"Compound": "C[C@@H]1O[C@@H](OC[C@H]2O[C@@H](Oc3c(-c4ccc(O)c(O)c4)oc4cc(O)cc(O)c4c3=O)[C@H](O)[C@@H](O)[C@@H]2O)[C@H](O)[C@H](O)[C@H]1O [RUTIN]", "Group": "0 (no)"}

stdin: Lab note: Ki threshold 90 microM/L. Does this compound come in strictly under it? O=c1c(O)c(-c2ccccc2)oc2cc(O)cc(O)c12 [GALANGIN]
stdout: 1 (yes)

stdin: Lab note: confirm whether the reported Ki for this compound is below 90 microM/L, equality not counting. compound: O=c1cc(-c2ccc(O)c(O)c2)oc2cc(O)cc(O)c12 [LUTEOLIN]
stdout: 1 (yes)

stdin: API: query returns whether the compound falls strictly under 90 microM/L in Ki. Query: O=c1c(O)c(-c2ccc(O)c(O)c2)oc2cc(O)cc(O)c12 [QUERCETIN]
stdout: 1 (yes)
